- MEASURED ON: AAK1 (Homo sapiens, UniProt Q2M2I8)
- Construct: HA; expressed in transfected cells; host or cells: HEK293F
- Sequence (Q2M2I8 1-863 isoform Q2M2I8-2): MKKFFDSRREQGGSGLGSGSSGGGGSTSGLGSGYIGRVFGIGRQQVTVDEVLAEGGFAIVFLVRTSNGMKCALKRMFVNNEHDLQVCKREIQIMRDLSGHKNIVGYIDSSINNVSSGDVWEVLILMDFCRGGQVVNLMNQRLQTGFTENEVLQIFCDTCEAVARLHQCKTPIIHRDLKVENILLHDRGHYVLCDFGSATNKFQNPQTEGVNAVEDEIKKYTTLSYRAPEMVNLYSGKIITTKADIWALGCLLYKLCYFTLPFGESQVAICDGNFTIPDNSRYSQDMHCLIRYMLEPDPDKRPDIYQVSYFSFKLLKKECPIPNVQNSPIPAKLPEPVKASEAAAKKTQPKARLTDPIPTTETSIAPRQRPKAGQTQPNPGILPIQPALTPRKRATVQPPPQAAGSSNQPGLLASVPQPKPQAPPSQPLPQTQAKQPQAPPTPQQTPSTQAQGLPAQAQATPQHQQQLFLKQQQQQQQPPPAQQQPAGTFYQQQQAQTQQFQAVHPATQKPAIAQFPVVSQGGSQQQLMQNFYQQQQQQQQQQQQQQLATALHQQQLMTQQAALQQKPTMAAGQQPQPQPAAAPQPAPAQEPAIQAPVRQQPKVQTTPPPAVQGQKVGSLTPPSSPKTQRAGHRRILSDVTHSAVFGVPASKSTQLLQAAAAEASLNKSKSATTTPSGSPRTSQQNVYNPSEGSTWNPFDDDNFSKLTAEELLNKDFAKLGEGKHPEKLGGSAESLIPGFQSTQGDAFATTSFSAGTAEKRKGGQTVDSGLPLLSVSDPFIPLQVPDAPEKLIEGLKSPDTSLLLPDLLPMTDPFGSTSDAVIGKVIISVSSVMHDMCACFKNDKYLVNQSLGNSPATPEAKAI
- ASSAY TEXT: HEK281 cell-based assay (phospho-mu2 Western blot in transfected HEK293F cells)
- CONDITIONS USED: 3 hours incubation, read-out: CBA IC50
ATTRIBUTE MEASURED: IC50

Example compounds with recorded IC50:
- COMPOUND STRING: "CCCNc1ccc2ncc(-c3ccc(C(C)=O)s3)n2n1"
  MEASURED ON: "AAK1 (Homo sapiens, UniProt Q2M2I8)"
  IC50: "≤ 1000 nM"
- COMPOUND STRING: "CCOC(=O)N(C)CCNc1ccc2ncc(-c3ccc(C(=O)NCCC(C)C)cc3)n2n1"
  MEASURED ON: "AAK1 (Homo sapiens, UniProt Q2M2I8)"
  IC50: "≤ 100 nM"
- COMPOUND STRING: "CC(C)(C)NC(=O)N1CCN(c2ccc3ncc(-c4ccccc4)n3n2)CC1"
  MEASURED ON: "AAK1 (Homo sapiens, UniProt Q2M2I8)"
  IC50: "≤ 100 nM"
- COMPOUND STRING: "CCOC(=O)N(C)[C@H]1CCN(c2ccc3ncc(-c4cc(F)cnc4OC)n3n2)C1"
  MEASURED ON: "AAK1 (Homo sapiens, UniProt Q2M2I8)"
  IC50: "≤ 100 nM"

query: // lookup IC50 for "NCc1ccc(-c2cnc3ccc(NCCCF)nn23)cc1"
result: ≤ 1000 nM

query: And "NCc1ccc(-c2cnc3ccc(NC4CCCCC4)nn23)cc1" ?
result: ≤ 1000 nM

query: Lookup "COC(=O)N1CCC[C@H]1CNc1ccc2ncc(Br)n2n1"
result: ≤ 1000 nM

* * *

- MEASURED ON: AAK1 (Homo sapiens)
- Construct: HA; expressed in transfected cells; host or cells: HEK293F
- ASSAY TEXT: HEK281 cell-based assay (phospho-mu2 Western blot in transfected HEK293F cells)
- CONDITIONS USED: 3 hours incubation, read-out: CBA IC50
Measured IC50 by item

Some solved cases for reference:
- COMPOUND: "NCc1ccc(-c2cnc3ccc(NCCCc4ccccc4)nn23)cc1"
  IC50: "≤ 100 nM"
- COMPOUND: "CC(C)OC(=O)N(C)CCNc1ccc2ncc(-c3ccc(C4CCCN4)cc3)n2n1 (centres unmarked)"
  IC50: "≤ 10 nM"
- COMPOUND: "CCCNc1ccc2ncc(-c3ccc(CN)cc3)n2n1"
  IC50: "≤ 1000 nM"
- COMPOUND: "CC(C)OC(=O)N1CCN(c2ccc3ncc(-c4cccc5c4OCO5)n3n2)CC1"
  IC50: "≤ 100 nM"
- COMPOUND: "CCOc1ccccc1CCNc1ccc2ncc(-c3ccc(C(=O)NC)cc3)n2n1"
  IC50: "≤ 10 nM"
- COMPOUND: "CCCCNc1ccc2ncc(-c3ccc(CNC(C)C)cc3)n2n1"
  IC50: "≤ 1000 nM"
- COMPOUND: "CC(C)(C)COC(=O)N1CCC[C@H]1CNc1ccc2ncc(-c3ccncc3)n2n1"
  IC50: "≤ 100 nM"
- COMPOUND: "NCc1ccc(-c2cnc3ccc(NCCc4cccc(F)c4)nn23)cc1"
  IC50: "≤ 100 nM"

query: Which IC50 value is on record for "CC(C)OCCNc1ccc2ncc(-c3ccns3)n2n1" ?
result: ≤ 100 nM

query: Request: "CC(C)OC(=O)N1CCC[C@H]1CNc1ccc2ncc(C#N)n2n1"
result: ≤ 1000 nM

query: Try the compound "O=C(OC1CCC1)N1CCC[C@H]1CNc1ccc2ncc(-c3ccncc3)n2n1"
result: ≤ 10 nM

* * *

- MEASURED ON: AAK1 (Homo sapiens, UniProt Q2M2I8)
- Construct: HA; expressed in transfected cells; host or cells: HEK293F
- ASSAY TEXT: P81 filter plate assay
- Format: biochemical
- CONDITIONS USED: full-length human AAK1, Mu2 substrate
pIC50: −log10 of the molar value.
ATTRIBUTE MEASURED: pIC50

// solved cases for pIC50 follow
- MOLECULE: "CC(C)OC(=O)N(C)[C@H]1CCN(c2ccc3ncc(-c4ccncc4)n3n2)C1"
  ATTRIBUTE MEASURED: "pIC50"
  MEASURED: "≥ 7.00"
- MOLECULE: "CC(C)C[C@H](N)C(=O)N1CCN(c2ccc3nccn3n2)CC1"
  ATTRIBUTE MEASURED: "pIC50"
  MEASURED: "≥ 6.00"
- MOLECULE: "CC(C)(C)C(=O)N1CCC[C@H]1CNc1ccc2ncc(-c3ccc(CN)cc3)n2n1"
  ATTRIBUTE MEASURED: "pIC50"
  MEASURED: "≥ 8.00"

query: Record "CC(C)OC(=O)N1CCN(c2ccc3ncc(-c4ccc(CN)cc4)n3n2)CC1" : what is its pIC50 with AAK1 (Homo sapiens, UniProt Q2M2I8)?
result: ≥ 8.00

query: Next entry: NCc1ccc(-c2cnc3ccc(NCC4CCCN4CC(F)(F)F)nn23)cc1 (stereo not drawn)
result: ≥ 8.00

query: Moving on to "CC(C)OC(=O)N(C)[C@H]1CCN(c2ccc3ncc(-c4cccnc4OC(F)F)n3n2)C1"
result: ≥ 8.00

query: Then "CCCC(=O)N1CCC[C@H]1CNc1ccc2ncc(-c3ccncc3)n2n1" ?
result: ≥ 8.00

* * *

- MEASURED ON: AAK1 (Homo sapiens)
- Construct: HA; expressed in transfected cells; host or cells: HEK293F
- ASSAY TEXT: HEK281 cell-based assay (phospho-mu2 Western blot in transfected HEK293F cells)
- CONDITIONS USED: 3 hours incubation, read-out: CBA IC50
- Description: HEK293F cells were cultured in media containing DMEM (Gibco, cat. #11965), 10% FBS (SAFC Biosciences, cat. #12103C), 1×GPS (glutamine, penicillin and streptomycin). On day one, cells were plated on a 10 cm dish so that they are ˜80% confluent at time of transfection. Roughly 12 million cells were in a 10 cm dish at time of transfection. On day two, each dish was transfected with 48 ug DNA and 144 ul Lipofectamine 2000 (Invitrogen, cat.#11668-019). […]
ATTRIBUTE MEASURED: IC50

- COMPOUND: "CCOC(=O)N(C)[C@H]1CCN(c2ccc3ncc(-c4cccnc4OC)n3n2)C1"
  MEASURED ON: "AAK1 (Homo sapiens)"
  IC50: "≤ 100 nM"

query: # IC50 lookup, item "CCCCNc1ccc2ncc(-c3ccc(C(=O)NCCN)cc3)n2n1"
result: ≤ 1000 nM

query: For "COc1ccc(F)cc1-c1cnc2ccc(NCCN(C)C(=O)OC(C)C)nn12" then?
result: ≤ 10 nM

query: Now the compound "CC(C)(C)OC(=O)N1CC[C@@H](CNc2ccc3ncc(Br)n3n2)C1"
result: ≤ 1000 nM

query: Also, "COc1ccccc1-c1cnc2ccc(NCCN(C(=O)OC(C)C)C(C)C)nn12" please.
result: ≤ 100 nM

query: And what about the compound "CCOc1ncccc1-c1cnc2ccc(N3CCN(C(=O)OC(C)C)CC3)nn12" ?
result: ≤ 10 nM

query: Here is the next compound: "COC(=O)N1CCC[C@H]1CNc1ccc2ncc(-c3ccccc3OC)n2n1"
result: ≤ 100 nM

query: # iterate: "CC(C)OC(=O)N1CCC[C@H]1CNc1ccc2ncc(C3CC3)n2n1"
result: ≤ 1000 nM

query: Another compound: "COc1cnccc1-c1cnc2ccc(NCCN(C)C(=O)OC(C)(C)C)nn12"
result: ≤ 1000 nM

* * *

Quick list: pIC50 per entry.
- MEASURED ON: AAK1 (Homo sapiens, UniProt Q2M2I8)
- Construct: HA; expressed in transfected cells; host or cells: HEK293F
- ASSAY TEXT: HEK281 cell-based assay (phospho-mu2 Western blot in transfected HEK293F cells)
- CONDITIONS USED: 3 hours incubation, read-out: CBA IC50
pIC50: −log10 of the molar value.

- MOLECULE: "NCc1ccc(-c2cnc3ccc(NC4COC5(CCCC5)C4)nn23)cc1 (stereo not drawn)"
  MEASURED ON: "AAK1 (Homo sapiens, UniProt Q2M2I8)"
  pIC50: "≥ 7.00"
- MOLECULE: "CCOC(=O)N1CCC[C@H]1CNc1ccc2ncc(-c3ccncc3OC)n2n1"
  MEASURED ON: "AAK1 (Homo sapiens, UniProt Q2M2I8)"
  pIC50: "≥ 7.00"
- MOLECULE: "CC(C)CC(=O)N1CCC[C@H]1CNc1ccc2ncc(-c3cccc(Cl)c3)n2n1"
  MEASURED ON: "AAK1 (Homo sapiens, UniProt Q2M2I8)"
  pIC50: "≥ 8.00"
- MOLECULE: "c1ccc(-c2cnc3ccc(NCCOC4CCCC4)nn23)nc1"
  MEASURED ON: "AAK1 (Homo sapiens, UniProt Q2M2I8)"
  pIC50: "≥ 7.00"
- MOLECULE: "CC(C)(C)OC(=O)N1CC[C@H]1CNc1ccc2ncc(Br)n2n1"
  MEASURED ON: "AAK1 (Homo sapiens, UniProt Q2M2I8)"
  pIC50: "≥ 7.00"

Please look at the following molecule next.
query: Short answer please: pIC50, AAK1 (Homo sapiens, UniProt Q2M2I8), entry "CN(C(=O)OC(C)(C)C)[C@H]1CCN(c2ccc3ncc(Br)n3n2)C1"
result: ≥ 6.00

Where these numbers come from: patent US8969565B2
